Assay: in vitro
Settings: human
ATTRIBUTE_MEASURED: viability at 48 h, 20 % (v/v)
The number alone won't do; follow it with the unit.

Query: // returns reported viability at 48 h, 20 % (v/v) for input C[S+](C)[O-] [DMSO, dimethyl sulfoxide]
Response: 5%

* * *

Assay: in vitro
Settings: human
ATTRIBUTE_MEASURED: viability at 48 h, 10 % (v/v)

Query: I have this compound here, C[S+](C)[O-] [DMSO, dimethyl sulfoxide] , and I need its recorded viability at 48 h, 10 % (v/v).
Response: < 50%
